Provenance of the data: patent US20180291096A1

# IC50, inhibition of IL-17 production per entry
Target: T1, recombinant human IL-23 (hrIL-23), produced at Centocor (human, UniProt P29460 23-328)
T1 sequence 1: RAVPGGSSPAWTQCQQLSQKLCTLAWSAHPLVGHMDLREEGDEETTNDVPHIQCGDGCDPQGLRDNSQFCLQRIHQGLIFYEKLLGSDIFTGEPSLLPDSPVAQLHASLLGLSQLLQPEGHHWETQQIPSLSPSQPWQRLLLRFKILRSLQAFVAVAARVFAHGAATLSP
T1 sequence 2: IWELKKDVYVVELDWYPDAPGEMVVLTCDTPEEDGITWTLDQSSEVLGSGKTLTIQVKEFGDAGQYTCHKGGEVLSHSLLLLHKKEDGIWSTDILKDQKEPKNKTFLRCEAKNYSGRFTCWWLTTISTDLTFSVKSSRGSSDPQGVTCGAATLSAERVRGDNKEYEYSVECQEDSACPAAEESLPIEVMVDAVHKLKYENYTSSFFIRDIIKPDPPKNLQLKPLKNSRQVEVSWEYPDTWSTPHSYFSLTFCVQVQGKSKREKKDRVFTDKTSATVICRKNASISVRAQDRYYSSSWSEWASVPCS
Assay: cell-based or functional assay
Numbers only; they are read as µg/mL.

Find the recorded IC50, inhibition of IL-17 production belonging to MOR05054 mAb (antibody, human IgG1, V domains shown) VH: QVELVESGGGLVQPGGSLRLSCAASGFTFSSFGMSWVRQAPGKGLEWVSGIEHKYLSYATLYAASVKGRFTISRDNSKNTLYLQMNSLRAEDTAVYYCARYWGTPYLMQFDNWGQGTLVTVSS VL: DIALTQPASVSGSPGQSITISCTGTSSDVGGYNSVSWYQQHPGKAPKLMIYSVSSRPSGVSNRFSGSKSGNTASLTISGLQAEDEADYYCSSYDTNKPLVVFGGGTKLTVL and report it.
0.00323

Next record, please: MOR05053 mAb (antibody, human IgG1, V domains shown) VH: QVELVESGGGLVQPGGSLRLSCAASGFTFSSFGMSWVRQAPGKGLEWVSNIEHKYTSYTTYYAASVKGRFTISRDNSKNTLYLQMNSLRAEDTAVYYCARYWGTPYLMQFDNWGQGTLVTVSS VL: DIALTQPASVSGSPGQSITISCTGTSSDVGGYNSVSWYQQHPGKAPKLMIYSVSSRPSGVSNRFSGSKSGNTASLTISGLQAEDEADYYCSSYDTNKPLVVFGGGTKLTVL
0.00493

Next record, please: MOR05046 mAb (antibody, human IgG1, V domains shown) VH: QVELVQSGAEVKKPGESLKISCKGSGYSFSNYWIGWVRQMPGKGLEWMGIIDPVSSWTKYSPSFQGQVTISADKSISTAYLQWSSLKASDTAMYYCARWYYKPFDVWGQGTLVTVSS VL: DIVLTQPPSVSGAPGQRVTISCTGSSSNIGSGYDVHWYQQLPGTAPKLLIYGNSKRPSGVPDRFSGSKSGTSASLAITGLQSEDEADYYCSSWTPSSVVFGGGTKLTVL
0.0428

Next:
Find the recorded IC50, inhibition of IL-17 production belonging to MOR05049 mAb (antibody, human IgG1, V domains shown, human IgG1/lambda) VH: QVELVESGGGLVQPGGSLRLSCAASGFTFSSFGMSWVRQAPGKGLEWVSGIEHKYLSYTTHYAASVKGRFTISRDNSKNTLYLQMNSLRAEDTAVYYCARYWGTPYLMQFDNWGQGTLVTVSS VL: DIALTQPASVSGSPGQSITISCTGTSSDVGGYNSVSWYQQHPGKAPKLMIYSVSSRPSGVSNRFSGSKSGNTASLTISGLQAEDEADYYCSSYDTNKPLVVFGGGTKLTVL and report it.
0.0162

Next record, please: MOR05050 mAb (antibody, human IgG1, V domains shown) VH: QVELVESGGGLVQPGGSLRLSCAASGFTFSSFGMSWVRQAPGKGLEWVSSIEHKYTGYTTYYAAPVKGRFTISRDNSKNTLYLQMNSLRAEDTAVYYCARYWGTPYLMQFDNWGQGTLVTVSS VL: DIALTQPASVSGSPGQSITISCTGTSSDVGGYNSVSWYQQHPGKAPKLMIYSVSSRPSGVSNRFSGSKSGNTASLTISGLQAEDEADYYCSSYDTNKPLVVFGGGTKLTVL
0.0277
